Cited source for all entries: patent US4015974A

compounds and their reported Mortality
# System: nematode
# assay-explanation: Effect on nematode (Table 7)
# Assay type: in vivo
# Design: tested at 500 ppm
# experimental-context: 500 p.p.m., 24 hours
# Method: 0.5 ml. of a nematode-containing aqueous solution separated from food according to Baermann's method was placed in a test tube with ground stopper containing 0.5 ml. of an aqueous dilute solution of each emulsifiable concentrates of the present compounds. The concentration of the active ingredient in the mixture was adjusted to 500 p.p.m. After 24 hours, the death and alive were observed microscopically to calculate the mortality.
Give the value in % but do not write % after it.

Below: 2 compounds and their reported Mortality.
[[record]]
compound = "CCCSP(=O)(OCC)SCC(=O)N1CCC(C)CC1 (stereo not drawn) [Compound 12]"
unit_of_measure = "%"
experimental_value = 100

[[record]]
compound = "CCOP(=O)(SCC(=O)N1CCCCC1C)SCc1ccc(C)cc1 (stereo not drawn) [Compound 52]"
unit_of_measure = "%"
experimental_value = 85.7


Note: attention shifts to another entry.
compound CCCSP(=O)(OCC)SCC(=O)N1CCCCC1CC (stereo not drawn) [Compound 14] , Mortality observed: 100

---

# Tested on: rice
# assay-explanation: Water application, phytotoxicity on rice (Table 2)
# Assay type: in vivo
# Design: key: 0: no effect; 1: very slightly affected; 2: slightly affected; 3: moderately affected; 4: considerably affected; 5: completely killed
# experimental-context: 40 g/a, 25 days, score 0-5
We begin with a simple list: items and their reported Phytotoxicity on rice.
Returns: the value as a bare number; no unit string appended.

[[record]]
compound = "CCOP(=O)(SCCCC(C)C)SCC(=O)N1CCCCC1CC (stereo not drawn) [Compound 80]"
experimental_value = 2

[[record]]
compound = "CCOP(=O)(SCC(=O)N1CCCC(C)C1)SC(C)C (stereo not drawn) [Compound 22]"
experimental_value = 0


Next up:
Documented Phytotoxicity on rice of CCCOP(=O)(SCCC)SCC(=O)N1CCCCC1CC (stereo not drawn) [Compound 85] : 0

---

Catalogue of Phytotoxicity on rice readings, one per entry.
# Tested on: rice
# assay-explanation: Water application, phytotoxicity on rice (Table 2)
# Type: in vivo
# Design: key: 0: no effect; 1: very slightly affected; 2: slightly affected; 3: moderately affected; 4: considerably affected; 5: completely killed
# experimental-context: 40 g/a, 25 days, score 0-5
No unit in the answer, please; the number alone is enough.

[[record]]
molecule = "CCCCOP(=O)(SCCC)SCC(=O)N1CCCCC1CC (centres unmarked) [Compound 93]"
experimental_value = 0

[[record]]
molecule = "CCOP(=O)(SCC)SCC(=O)N1CCC(C)CC1 (centres unmarked) [Compound 100]"
experimental_value = 0

[[record]]
molecule = "CCCCOP(=O)(SCCC(C)C)SCC(=O)N1CCCCC1CC (centres unmarked) [Compound 99]"
experimental_value = 0

[[record]]
molecule = "CCOP(=O)(SCCC(C)C)SCC(=O)N1CCCCC1CC (centres unmarked) [Compound 79]"
experimental_value = 1

[[record]]
molecule = "CCOP(=O)(SCC(=O)N1CCCCC1C)SCc1ccc(C(C)(C)C)cc1 (centres unmarked) [Compound 50]"
experimental_value = 1


# context switch: different molecule, same Phytotoxicity on rice
Reported rice Phytotoxicity on rice for item CCOP(=O)(SCC(=O)N1CCCCC1C)SCC(C)c1ccccc1 (centres unmarked) [Compound 65] was 0

---

Listing of recorded Herbicidal effect, common purslane by entry.
# Test system: common purslane (Portulaca oleracea)
# assay-explanation: Pre-emergence application, herbicidal effect on common purslane (Table 1)
# Assay type: in vivo
# experimental-context: 40 g./a., 20 days after application, score 0-5
Lab note: jot the number down without any unit.

Example results:
[[record]]
molecule = "CCCOP(=O)(SCC(=O)N1CCCCC1C)SC(C)C (centres unmarked)"
quantity_kind = "Herbicidal effect, common purslane"
experimental_value = 4

[[record]]
molecule = "C=C(C)CSP(=O)(OCC)SCC(=O)N1CCCCC1CC (centres unmarked)"
quantity_kind = "Herbicidal effect, common purslane"
experimental_value = 5

[[record]]
molecule = "CCCSP(=O)(OCC)SCC(=O)N1CCC(C)CC1 (centres unmarked)"
quantity_kind = "Herbicidal effect, common purslane"
experimental_value = 5

[[record]]
molecule = "CCCCSP(=O)(OCCC)SCC(=O)N1CCCCC1CC (centres unmarked)"
quantity_kind = "Herbicidal effect, common purslane"
experimental_value = 5

[[record]]
molecule = "CCCCOP(=O)(SCC(=O)N1CCCCC1CC)SC(C)CC (centres unmarked)"
quantity_kind = "Herbicidal effect, common purslane"
experimental_value = 5

[[record]]
molecule = "CCOP(=O)(SCC(=O)N1CCC(C)CC1)SC(C)CC (centres unmarked)"
quantity_kind = "Herbicidal effect, common purslane"
experimental_value = 4

[[record]]
molecule = "CCCCOP(=O)(SCC(=O)N1CCCCC1C)SCc1ccc(C)cc1 (centres unmarked)"
quantity_kind = "Herbicidal effect, common purslane"
experimental_value = 4

[[record]]
molecule = "CCCCCCCCSP(=O)(OCC)SCC(=O)N1CCCCC1C (centres unmarked)"
quantity_kind = "Herbicidal effect, common purslane"
experimental_value = 4

[[record]]
molecule = "CCOP(=O)(SCC(=O)N1CCCCC1C)SCc1ccc(C)cc1 (centres unmarked)"
quantity_kind = "Herbicidal effect, common purslane"
experimental_value = 5

[[record]]
molecule = "CCCSP(=O)(OCC)SCC(=O)N1CCCCC1C (centres unmarked)"
quantity_kind = "Herbicidal effect, common purslane"
experimental_value = 5


Herbicidal effect, common purslane recorded for this molecule, CCOP(=O)(SCC(=O)N1CCCCC1C)SCc1ccc(Cl)cc1 (centres unmarked) , is 5

Herbicidal effect, common purslane reported for this molecule CCCOP(=O)(SCCc1ccccc1)SCC(=O)N1CCCCC1CC (centres unmarked) : 4

Measured Herbicidal effect, common purslane, C=C(Cl)CSP(=O)(OCC)SCC(=O)N1CCCCC1C (centres unmarked) : 5

The recorded Herbicidal effect, common purslane for entry CCCSP(=O)(OCC)SCC(=O)N1CCCC(C)C1 (centres unmarked) equals 5

Looking up CCOP(=O)(SCC(=O)N1CCCCC1C)SCc1ccc(C(C)(C)C)cc1 (centres unmarked) , I see its Herbicidal effect, common purslane listed as 5

Herbicidal effect, common purslane in this record for CCOP(=O)(SCCC(C)C)SCC(=O)N1CCCCC1CC (centres unmarked) : 5

Record CCCCOP(=O)(SCCCC)SCC(=O)N1CCCCC1CC (centres unmarked) , field Herbicidal effect, common purslane: 3

---

Here, each record is paired with measured Herbicidal effect, radish data.
# Test system: radish
# assay-explanation: Pre-emergence application, herbicidal effect on radish (Table 1)
# Type: in vivo
# Set-up: key: 0: not damaged; 5: completely killed
# experimental-context: 20 g./a., 20 days after application, score 0-5

# count of solved cases: 2
[[record]]
compound = "CCOP(=O)(SCCc1ccccc1)SCC(=O)N1CCCCC1C (stereo not shown)"
quantity_kind = "Herbicidal effect, radish"
experimental_value = 0

[[record]]
compound = "CCOP(=O)(SCC)SCC(=O)N1CCCCC1CC (stereo not shown)"
quantity_kind = "Herbicidal effect, radish"
experimental_value = 1


// next item, Herbicidal effect, radish requested
CCOP(=O)(SCC(=O)N1CCCCC1C)SCc1ccc(CC)cc1 (stereo not shown) tested on radish gave Herbicidal effect, radish: 0

---

# System: carmine mite (Tetranychus telavius)
# assay-explanation: Lethal effect on carmine mite, leaf dipping (Table 3)
# Assay type: in vivo
# experimental-context: foliar, 48 h
Measured LC50, listed per entry.
Write the number in mg/L without appending the unit.

[[record]]
compound = "CCOP(=O)(SCC(=O)N1CCCCC1C)SC(C)C (centres unmarked) [Compound 3]"
quantity_kind = "LC50"
experimental_value = 18.5


Kindly note the recorded LC50 for CCCSP(=O)(OCC)SCC(=O)N1CCCCC1CC (centres unmarked) [Compound 14] , which is 23.1

Kindly note the recorded LC50 for CCCSP(=O)(OCC)SCC(=O)N1CCCCC1C (centres unmarked) [Compound 2] , which is 4.6

---

The reader will find reported Herbicidal effect, radish values listed item by item below.
# System: radish
# assay-explanation: Pre-emergence application, herbicidal effect on radish (Table 1)
# Type: in vivo
# Parameters: key: 0: not damaged; 5: completely killed
# experimental-context: 20 g./a., 20 days after application, score 0-5

Examples from the recorded data:
[[record]]
compound = "CCOP(=O)(SCC(=O)N1CCC(C)CC1)SC(C)CC (stereo not shown) [Compound 27]"
quantity_kind = "Herbicidal effect, radish"
experimental_value = 0

[[record]]
compound = "CCOP(=O)(SCC(=O)N1CCC(C)CC1)SC(C)C (stereo not shown) [Compound 26]"
quantity_kind = "Herbicidal effect, radish"
experimental_value = 0

[[record]]
compound = "CCCOP(=O)(SCCc1ccccc1)SCC(=O)N1CCCCC1CC (stereo not shown) [Compound 19]"
quantity_kind = "Herbicidal effect, radish"
experimental_value = 0

[[record]]
compound = "CCCCOP(=O)(SCC(=O)N1CCCCC1CC)SC(C)CC (stereo not shown) [Compound 96]"
quantity_kind = "Herbicidal effect, radish"
experimental_value = 0

[[record]]
compound = "CCOP(=O)(SCC(=O)N1CCCCC1C)SC(C)C (stereo not shown) [Compound 3]"
quantity_kind = "Herbicidal effect, radish"
experimental_value = 0


Entry CCCOP(=O)(SCCC(C)C)SCC(=O)N1CCCCC1C (stereo not shown) [Compound 69] : Herbicidal effect, radish on radish = 0

Param item: CCCSP(=O)(OCC)SCC(=O)N1CCC(C)CC1 (stereo not shown) [Compound 12] ; param system: radish; output Herbicidal effect, radish: 0

Form: item CCOP(=O)(SCC(=O)N1CCCCC1C)SCc1ccc(Cl)cc1 (stereo not shown) [Compound 49] ; test system radish; Herbicidal effect, radish: 0

Here CCCOP(=O)(SCCC)SCC(=O)N1CCCCC1CC (stereo not shown) [Compound 85] was tested on radish, and its Herbicidal effect, radish came to 0

The compound CCCSP(=O)(OCC)SCC(=O)N1CCCCC1CC (stereo not shown) [Compound 14] , when measured on radish, yielded Herbicidal effect, radish of 0
